target-or-test-system: UniProt P57771
Sequence (P57771 other isoform, or with tags, fused parts or gaps): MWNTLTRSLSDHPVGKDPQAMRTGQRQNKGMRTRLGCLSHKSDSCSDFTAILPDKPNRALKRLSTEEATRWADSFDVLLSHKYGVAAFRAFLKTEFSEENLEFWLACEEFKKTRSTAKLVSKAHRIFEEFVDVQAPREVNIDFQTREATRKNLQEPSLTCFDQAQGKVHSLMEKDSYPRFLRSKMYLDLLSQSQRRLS
method-description: FCPIA: Gαo binding to RGS8
cond: Table 3, duplex FCPIA, average of two experiments; read-out: RGS8 IC50
experimental-readout: pIC50
In textbook form, pIC50 equals minus log to base ten of the concentration in mol/L.

The cases that follow already have their pIC50 on record.
> print(dat)
                              line.notation  test.result
1  CN(C)c1ccc(-n2sc(=O)n(Cc3ccc(F)cc3)c2=O)cc1         4.99
2  O=c1sn(-c2cccc(C(F)(F)F)c2)c(=O)n1Cc1ccc(F)cc1         4.79
3  Cc1ccc(Cn2c(=O)sn(-c3ccc(Cl)cc3)c2=O)cc1         4.89
4  COc1ccc(Cn2c(=O)sn(-c3ccc(Cl)c(Cl)c3)c2=O)cc1         4.44

Now examine the next entry.
"Cc1ccc(Cn2sc(=O)n(Cc3ccc(F)cc3)c2=O)cc1" has a reported pIC50 of 4.40

###

System: RGS4
method-description: FCPIA: Gαo binding to RGS4
cond: Table 3
The threshold is -1. Values of RGS4 Hill Slope beneath it are tagged yes (1); values meeting or exceeding it are tagged no (0).

State whether -1 exceeds RGS4 Hill Slope recorded for CN(C)c1ccc(-n2sc(=O)n(Cc3ccc(F)cc3)c2=O)cc1 [S2] .
yes (1)

Threshold test, RGS4 Hill Slope < -1: COc1ccc(-n2sc(=O)n(Cc3ccc(F)cc3)c2=O)cc1 [CCG-203735]
yes (1)

Lab log: compare recorded RGS4 Hill Slope with -1; is it strictly lower for CCCCn1c(=O)sn(CC)c1=O [CCG-203769] ?
no (0)

###

Below, each entry is listed with its recorded pIC50.
target-or-test-system: RGS4
method-description: FCPIA: Gαo binding to RGS4
cond: Table 3, duplex FCPIA, average of two experiments; read-out: RGS4 IC50
// scale note: pIC50 = -log10(conc_M); give the bare number

The recorded pIC50 for "CCn1sc(=O)n(CC(C)C)c1=O" is 7.59

###

Tested on: RGS4
method-description: FCPIA: Gαo binding to RGS4
cond: Table 3
Description: FCPIA Dose Response and Reversibility Experiments:
RGS4 Hill Slope less than -1 is 1 (yes); RGS4 Hill Slope greater than or equal to -1 is 0 (no).

Use these answered entries as a reference point.
> print(dat)
                                   compound  target.or.test.system  class.name
1  Cc1ccc(Cn2sc(=O)n(Cc3ccccc3)c2=O)cc1 [CCG-203734]                   RGS4      0 (no)
2  COc1ccc(-n2sc(=O)n(Cc3ccc(Cl)c(Cl)c3)c2=O)cc1 [S31]                   RGS4      0 (no)
3      CCCCn1sc(=O)n(CCCC)c1=O [CCG-203770]                   RGS4      0 (no)
4  Cc1cccc(Cn2c(=O)sn(-c3cccc(C)c3)c2=O)c1 [S21]                   RGS4     1 (yes)

RGS4 Hill Slope under -1? Item: O=c1sn(-c2ccccc2)c(=O)n1Cc1ccc(Cl)c(Cl)c1 [S29]
0 (no)

Input COc1ccc(Cn2c(=O)sn(-c3ccc(Cl)c(Cl)c3)c2=O)cc1 [S27] ; condition: RGS4 Hill Slope strictly below -1. Does it hold?
1 (yes)

Sourced from patent US8865750B2
